Data credit: patent US20250051315A1

- assay.system: UniProt:P25101
- Sequence (P25101 21-427): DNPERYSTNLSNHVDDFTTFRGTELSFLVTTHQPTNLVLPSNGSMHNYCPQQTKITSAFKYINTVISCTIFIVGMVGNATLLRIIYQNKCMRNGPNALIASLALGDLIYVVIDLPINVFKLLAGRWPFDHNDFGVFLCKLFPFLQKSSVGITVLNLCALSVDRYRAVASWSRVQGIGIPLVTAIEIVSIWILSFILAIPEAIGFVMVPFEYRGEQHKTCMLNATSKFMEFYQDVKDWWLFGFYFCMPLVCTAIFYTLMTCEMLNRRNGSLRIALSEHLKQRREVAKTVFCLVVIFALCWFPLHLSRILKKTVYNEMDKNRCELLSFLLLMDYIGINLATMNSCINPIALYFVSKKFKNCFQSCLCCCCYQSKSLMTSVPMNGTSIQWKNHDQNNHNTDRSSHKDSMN
- measurement.description: Endothelin A receptor inhibitory effect (aequorin luminescence, endothelin at EC80)
- condition.context: CHO-K1-mt aequorin cells expressing human endothelin A receptor, read-out: ETA Receptor Inhibitory Effect
pIC50: −log10 of the molar value.
measure.name: pIC50

Request: Given the entry CCCCC1=NC2(CCCC2)C(=O)N1Cc1ccc(-c2ccccc2S(=O)(=O)Nc2noc(C)c2C)c2c1COC2 , what pIC50 was observed with UniProt:P25101?
Result: < 7.00

Request: Given the entry CCCCC1=NC2(CCCC2)C(=O)N1Cc1ccc(-c2ccccc2S(=O)(=O)Nc2noc(C)c2Cl)c2c1COC2 , what pIC50 was observed with UniProt:P25101?
Result: 7.00 to 9.00

Request: Given the entry CCCCC1=NC2(CCCC2)C(=O)N1Cc1ccc(-c2ccccc2S(=O)(=O)Nc2ncc(C)nc2OC)c2c1COC2 , what pIC50 was observed with UniProt:P25101?
Result: 7.00 to 9.00

---

For each of the compounds below, state its pIC50.
- assay.system: human angiotensin II type 1 receptor (Homo sapiens, UniProt P30556)
- Sequence (P30556 whole entry): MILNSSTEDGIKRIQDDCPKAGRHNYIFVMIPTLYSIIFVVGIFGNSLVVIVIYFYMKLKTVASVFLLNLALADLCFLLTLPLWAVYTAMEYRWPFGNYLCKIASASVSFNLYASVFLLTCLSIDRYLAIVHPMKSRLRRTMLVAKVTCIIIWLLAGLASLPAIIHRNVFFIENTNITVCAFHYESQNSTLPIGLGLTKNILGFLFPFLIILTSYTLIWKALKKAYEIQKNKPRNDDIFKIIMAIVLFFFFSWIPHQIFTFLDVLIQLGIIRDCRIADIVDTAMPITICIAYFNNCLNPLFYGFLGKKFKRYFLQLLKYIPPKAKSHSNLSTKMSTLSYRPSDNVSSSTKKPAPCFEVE
- measurement.description: Angiotensin II type 1 receptor inhibitory effect (aequorin luminescence, angiotensin II at EC80)
- condition.context: CHO-K1-mt aequorin-Gα16 cells expressing human AT1 receptor
pIC50: −log10 of the molar value.

Request: Which pIC50 reading was recorded for the compound CCCCC1=NC2(CCCC2)C(=O)N1Cc1ccc(-c2ccccc2S(=O)(=O)Nc2ncc(C)nc2OC)c2c1COC2 ?
Result: 7.00 to 9.00

Request: Which pIC50 reading was recorded for the compound CCCCC1=NC2(CCCC2)C(=O)N1Cc1ccc(-c2ccccc2S(=O)(=O)Nc2noc(C)c2C)c2c1COC2 ?
Result: ≥ 9.00

Request: Which pIC50 reading was recorded for the compound CCCCC1=NC2(CCCC2)C(=O)N1Cc1ccc(-c2ccccc2S(=O)(=O)Nc2noc(C)c2Cl)c2c1COC2 ?
Result: 7.00 to 9.00
